experiment: Pharmacokinetic evaluation in mice (plasma); type: in vivo; settings: mouse, IV 0.5 mg/kg, male CD-1 mice
reported_property: clearance
Answer shape: numeric part, then the unit.

Q: Item O=C(O)c1scc2[nH]c(=O)n(-c3cc4c(cc3F)OCCCOc3ccc(F)c(F)c3CO4)c(=O)c12 [Compound 1] has what recorded clearance?
Ans: 0.332 mL/min/kg

---

experiment: Pharmacokinetic evaluation in mice (plasma); type: in vivo; conditions: mouse, IV 0.5 mg/kg, male CD-1 mice
reported_property: C0 (µM)
# value in µM; strip the unit string

Q: # query: C0 of entry O=C(O)c1scc2[nH]c(=O)n(-c3cc4c(cc3F)OCCCOc3ccc(F)c(F)c3CO4)c(=O)c12
Ans: 13.5

---

assay: Pharmacokinetic evaluation in mice (plasma); format: in vivo; conditions: mouse, IV 0.5 mg/kg, male CD-1 mice
reported_property: half-life (h)
The answer is to be given in h; state only the numeric part.

Q: Endpoint output: half-life of O=C(O)c1scc2[nH]c(=O)n(-c3cc4c(cc3F)OCCCOc3ccc(F)c(F)c3CO4)c(=O)c12 [Compound 1] . Value?
Ans: 5.66

---

experiment: Pharmacokinetic evaluation in mice (plasma); type: in vivo; settings: mouse, PO 2 mg/kg vs IV 0.5 mg/kg, male CD-1 mice
reported_property: bioavailability (%)
Express it in %; write the number only.

Q: Which bioavailability value is on record for O=C(O)c1scc2[nH]c(=O)n(-c3cc4c(cc3F)OCCCOc3ccc(F)c(F)c3CO4)c(=O)c12 [Compound 1] ?
Ans: 95.3

---

assay: Pharmacokinetic evaluation in mice (plasma); format: in vivo; conditions: mouse, PO 2 mg/kg, male CD-1 mice
reported_property: AUC(0-t) (µM·h)
Give the number; µM·h is assumed, so skip it.

Q: Entry O=C(O)c1scc2[nH]c(=O)n(-c3cc4c(cc3F)OCCCOc3ccc(F)c(F)c3CO4)c(=O)c12 has what AUC(0-t)?
Ans: 143

---

test: Pharmacokinetic evaluation in mice (plasma); format: in vivo; details: mouse, IV 0.5 mg/kg, male CD-1 mice
reported_property: AUC(0-t) (µM·h)
Report as a plain number; the unit µM·h is understood.

Q: For the compound shown here, O=C(O)c1scc2[nH]c(=O)n(-c3cc4c(cc3F)OCCCOc3ccc(F)c(F)c3CO4)c(=O)c12 , give the reported AUC(0-t).
Ans: 48.3
